- Target of assay: recombinant human Meningioma Expressed Antigen 5 (MGEA5), also referred to as O-GlcNAcase (OGA) (Homo sapiens, UniProt O60502)
- Construct: Full length OGA enzyme was purchased at OriGene (cat #TP322411); purchased OriGene TP322411
- Sequence (O60502 whole entry): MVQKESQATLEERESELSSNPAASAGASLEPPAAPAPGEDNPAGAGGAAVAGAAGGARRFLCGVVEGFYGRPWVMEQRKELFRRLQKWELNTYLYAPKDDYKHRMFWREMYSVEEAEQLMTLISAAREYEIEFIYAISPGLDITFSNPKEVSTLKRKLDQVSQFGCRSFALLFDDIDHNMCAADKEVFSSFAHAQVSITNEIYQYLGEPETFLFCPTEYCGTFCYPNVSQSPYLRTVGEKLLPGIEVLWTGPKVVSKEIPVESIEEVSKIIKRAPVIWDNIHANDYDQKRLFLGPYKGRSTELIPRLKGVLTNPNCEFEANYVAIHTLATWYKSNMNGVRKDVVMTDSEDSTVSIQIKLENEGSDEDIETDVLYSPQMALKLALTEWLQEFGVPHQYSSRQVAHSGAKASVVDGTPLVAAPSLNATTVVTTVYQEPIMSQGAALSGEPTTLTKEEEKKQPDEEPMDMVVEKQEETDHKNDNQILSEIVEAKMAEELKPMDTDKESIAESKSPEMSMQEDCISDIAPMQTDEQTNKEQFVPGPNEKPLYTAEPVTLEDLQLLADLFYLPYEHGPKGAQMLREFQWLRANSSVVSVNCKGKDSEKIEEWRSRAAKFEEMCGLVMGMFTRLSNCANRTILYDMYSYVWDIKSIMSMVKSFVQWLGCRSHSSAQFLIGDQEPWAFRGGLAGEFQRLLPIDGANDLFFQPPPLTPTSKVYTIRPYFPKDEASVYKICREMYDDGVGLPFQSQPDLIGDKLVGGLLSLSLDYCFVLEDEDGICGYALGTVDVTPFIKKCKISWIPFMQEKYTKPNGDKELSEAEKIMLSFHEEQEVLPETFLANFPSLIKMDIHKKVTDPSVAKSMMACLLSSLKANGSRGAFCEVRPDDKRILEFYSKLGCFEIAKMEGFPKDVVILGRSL
- Protocol notes: OGA biochemical assay (inhibition of FM-GlcNAc hydrolysis, fluorescence)
- Test conditions: FM-GlcNAc substrate, maximal effect, read-out: Enzymatic Emax (%)
Measurement type: Emax
Report the figure along with its unit, number first.

Consider the following illustrative entries.
Cc1nc2nc(C(C)N3CC[C@H](Cc4cc(F)cc(F)n4)C3)ccc2o1 (stereo partly shown) | 99%
Cc1cc(C2CCCN(C(C)c3cc4nc(C)oc4cc3F)C2)cc(C)n1 (racemic) | 99%
Cc1cc(C[C@H]2CCCN(C(C)c3ccc4oc(C)nc4n3)C2)cc(C)n1 (mixture of isomers) | 101%

Give the measured Emax of Cc1cc(C[C@H]2CCN(C(C)c3ccc4nc(C)sc4c3)C2)cc(C)n1 (single isomer, unassigned) [Compound 57] .
28%
